Target: SIRT1 (Homo sapiens)
Test: Mass spectrometry based assay to identify modulators of SIRT1 activity (deacetylation of p53-based acetylated peptide substrate)
Type: biochemical
reported metric: EC1.5 (concentration giving 1.5-fold activation)

CCN1CCCN(C(=O)Nc2ccc(F)cn2)c2nc(-c3cccc(Cl)c3)ccc21: > 25000 nM
CCN1C(=O)CCN(C(=O)Nc2ccncc2F)c2nc(-c3cccc(Cl)c3)ccc21: > 25000 nM
CCN1C(=O)CCN(C(=O)Nc2ccc(F)cn2)c2nc(-c3cccc(Cl)c3)ccc21: > 25000 nM
Cc1cc(C)nc(NC(=O)N2CCCOc3ccc(-c4cccc(Cl)c4)nc32)c1: > 25000 nM

Hi there! I need EC1.5 (concentration giving 1.5-fold activation) for each item below, if you can.
1. O=C(Nc1cccc(OCC(O)CO)c1)N1CCC(F)(F)c2ccc(-c3cccc(C(F)(F)F)c3)nc21 (stereo not shown)
2. Cc1cncc(NC(=O)N2CCOc3ncc(-c4cccc(C(F)(F)F)c4)nc32)c1

< 1000 nM
1000 to 25000 nM

Hi there! I need EC1.5 (concentration giving 1.5-fold activation) for each item below, if you can.
1. O=C(Nc1cnc(OC[C@H](O)CO)cn1)N1CCCOc2ccc(-c3cccc(Cl)c3)nc21
2. Cc1cc(NC(=O)N2CCOc3c(N4CCNCC4)nc(-c4cccc(F)c4)nc32)cc(C)n1
3. Cc1csc(NC(=O)N2CCC(C)(C)C(=O)c3ccc(-c4cccc(Cl)c4)nc32)n1
4. CC1(C)CCN(C(=O)Nc2ccnc(OC[C@H](O)CO)n2)c2nc(-c3cccc(C(F)(F)F)c3)ccc21
5. CCN1CCCN(C(=O)Nc2ccncn2)c2nc(-c3cccc(Cl)c3)ccc21
6. O=C(Nc1cc(OCC(O)CO)ccn1)N1CCc2ccc(-c3cccc(C(F)(F)F)c3)nc21 (stereo not shown)

< 1000 nM
1000 to 25000 nM
1000 to 25000 nM
< 1000 nM
1000 to 25000 nM
< 1000 nM

====

Molecular target: UniProt Q96EB6
Sequence (Q96EB6 1-747): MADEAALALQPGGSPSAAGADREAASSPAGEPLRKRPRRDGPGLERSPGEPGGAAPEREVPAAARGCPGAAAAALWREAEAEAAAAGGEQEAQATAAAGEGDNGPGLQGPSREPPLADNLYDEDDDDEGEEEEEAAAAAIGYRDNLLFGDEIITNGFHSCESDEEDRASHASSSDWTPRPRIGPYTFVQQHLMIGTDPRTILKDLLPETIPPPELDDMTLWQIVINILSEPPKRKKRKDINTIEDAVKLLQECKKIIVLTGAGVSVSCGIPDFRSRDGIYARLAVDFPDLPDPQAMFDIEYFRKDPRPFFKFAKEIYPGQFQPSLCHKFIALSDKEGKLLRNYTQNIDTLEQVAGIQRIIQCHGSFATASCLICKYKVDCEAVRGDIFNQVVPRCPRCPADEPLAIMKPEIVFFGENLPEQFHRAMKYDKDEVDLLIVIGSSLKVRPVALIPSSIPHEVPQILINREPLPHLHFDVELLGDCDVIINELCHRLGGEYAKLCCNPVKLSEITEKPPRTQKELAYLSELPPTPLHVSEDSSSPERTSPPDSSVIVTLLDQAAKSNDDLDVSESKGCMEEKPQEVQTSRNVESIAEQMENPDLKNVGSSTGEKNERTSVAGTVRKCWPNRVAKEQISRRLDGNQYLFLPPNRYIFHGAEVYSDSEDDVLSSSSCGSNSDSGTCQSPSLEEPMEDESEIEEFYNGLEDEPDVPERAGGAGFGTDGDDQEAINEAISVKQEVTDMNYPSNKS
Assay: Mass spectrometry based assay to identify modulators of SIRT1 activity (deacetylation of p53-based acetylated peptide substrate)
Format: biochemical
Provide the recorded EC1.5 (concentration giving 1.5-fold activation) for the entries that follow.

O=C(Nc1ccncc1F)N1CCCOc2ccc(-c3cccc(Cl)c3)nc21 [Compound 769]: 1 to 25 µM
CC1(C)CCN(C(=O)Nc2ccncc2F)c2nc(-c3cccc(C(F)(F)F)c3)ccc21 [Compound 847]: > 25 µM

Hi there! I need EC1.5 (concentration giving 1.5-fold activation) for each item below, if you can.
1. Cc1cccc(NC(=O)N2CCCCc3ccc(-c4cccc(C(F)(F)F)c4)nc32)n1 [Compound 818]
2. O=C(Nc1cncc(OCC(O)CO)n1)N1CCc2ccc(-c3cccc(C(F)(F)F)c3)nc21 (centres unmarked) [Compound 868]
3. Cc1cnccc1NC(=O)N1CCC(C)(C)c2ccc(-c3cccc(C(F)(F)F)c3)nc21 [Compound 834]
4. O=C(Nc1cccc(OC[C@H](O)CO)n1)N1CCCC(F)(F)c2ccc(-c3cccc(Cl)c3)nc21 [Compound 781]
5. Cc1ccnc(NC(=O)N2CCCOc3ccc(-c4cccc(Cl)c4)nc32)c1 [Compound 763]
6. CCN1CCCN(C(=O)Nc2cccc(OC[C@@H](O)CO)n2)c2nc(-c3cccc(Cl)c3)ccc21 [Compound 796]
7. CCN1C(=O)CCN(C(=O)Nc2ccnc(OC)n2)c2nc(-c3cccc(Cl)c3)ccc21 [Compound 792]
8. CC1CCN(C(=O)Nc2cncnc2)c2nc(-c3cccc(C(F)(F)F)c3)ccc21 (centres unmarked) [Compound 802]

1: > 25 µM; 2: < 1 µM; 3: 1 to 25 µM; 4: 1 to 25 µM; 5: 1 to 25 µM; 6: 1 to 25 µM; 7: > 25 µM; 8: < 1 µM

Fill in: EC1.5 (concentration giving 1.5-fold activation) of Cc1cnc(NC(=O)N2CCCOc3ccc(-c4cccc(Cl)c4)nc32)s1 [Compound 704] is ___
1 to 25 µM
